This collection of values is drawn from the RNAGym collection of RNA variant scans (doi:10.1073/pnas.2313332121).

B1: TPR t1 (parent)
chain: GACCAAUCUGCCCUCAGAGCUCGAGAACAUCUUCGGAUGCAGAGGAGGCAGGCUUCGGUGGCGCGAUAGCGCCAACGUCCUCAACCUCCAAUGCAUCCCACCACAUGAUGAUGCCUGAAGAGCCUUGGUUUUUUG

variants of: B1; assay: polymerase ribozyme fitness, log enrichment relative to wild type (log ratio); higher = more active; in vitro selection for triplet polymerase activity
Experimental readout: polymerase ribozyme fitness (log ratio)
Respond with the number and no other words.

GACCUAUCUGCCCUCAGAGCUCGAGAACAUCUUCGGAUGCAGAGGAGGCAGCCUUCGGUGGCGCGAUAGCGCAAACGUCCUCAACCUCCAAUGCAUCCCAUCACAAGACGAUGCCUGAAGAGCCUUGGUUUUUUU [A5U G52C C73A C101U U106A U109C G135U]    -5.42
GACCAAUCUGCCCUCAGAGCUCGAGAACAUCUUCGGAUGCAGAGGAGGCAGGCUUCGGUGGCGCGAUAGCGCUAACGUCCUUAACCUCCAUUGCAUCCCUCCACAUGAUGAUGCCUGAAGAGCCUUGGUUUUUUG [C73U C82U A91U A100U]    -3.21
GACCAAUCUGCCCUCAGAGCACGAGAACAUCUUCGGAUGCAGAGUAGGCAGGCUUCGGUGGCGCGAUAGCGCCAACGUCCUCAACCUCCAAUGCAUCCCACCACAUGAUGAUGCCUGAAGAGCCUUGGUUUUUUG [U21A G45U]    -1.28
GACCAAUCUGCCCUCAGAGCUCGAGAACAUCUUCGGAUGCAGAGGAGGCAGGCUUCGGUGGAGCGAUAGCGCCAACGUCCUCAACCUCCAAUGCAUCCCACCACAUGAUGAUGCCUGAAGAGCCUUGGUUAUUUA [C62A U131A G135A]    -2.64
GACCAAUCUGCGCUCAGAGCUCGAGAACAUCUUCGGAUGCAGAGGACGCAGGUUUUGGUGGCGCGAUAGCGCCAACGUCCUCAACCUCCAAUGCAUCCCACCACAUGAUGAUACCUGCAGAGCCUUGGUUUUUUG [C12G G47C C53U C56U G113A A118C]    -5.05

Dear colleague, I am looking for the recorded polymerase ribozyme fitness (log ratio) of the following variant: GACCAAUCUGCCCUCAGAGGUCGAGAACAUCUUCGGAUGCAGAGGAGGCAGGCUUCGGUGGCGCGAUAGCGCCAACGUCCUCAACCUCCAAUGCAUCCCACCACAUGAUGAUGCUUCAAGAGCCUUGGUUUUUUG [C20G C115U G117C]
-4.63
